system: MCF7; experiment: Growth inhibition of Homo sapiens (human) MCF7 cells after 48 hr by SRB assay; type: functional; details: MCF7, 48 h
Readout Name: GI50 (µM)

Would you please look over these solved cases?
>  <Mol Smiles>
Cc1nc2ccccc2c(=O)n1NC1=CSC(=C(C#N)C#N)N1c1ccccc1

>  <Unit Text>
µM

>  <GI50>
40.6

$$$$
>  <Mol Smiles>
Cc1nc2ccccc2c(=O)n1/N=C1\SCC(=O)N1c1ccccc1

>  <Unit Text>
µM

>  <GI50>
22

$$$$
>  <Mol Smiles>
Cc1nc2ccccc2c(=O)n1Nc1cc2ccccc2oc1=O

>  <Unit Text>
µM

>  <GI50>
32

$$$$

(1) Cc1nc2ccccc2c(=O)n1/N=c1\scc(N)n1-c1ccccc1
(2) CCOC(=O)c1c(N)cc(O)n1-n1c(C)nc2ccccc2c1=O
(3) CCOC(=O)CNn1c(C)nc2ccccc2c1=O
Please list these compounds in decreasing order of GI50. Answer format: list of labels, ordered as asked. 1, 3, 2

###

test system: SF-268; assay: Growth inhibition of Homo sapiens (human) SF268 cells after 48 hr by SRB assay; type: functional; details: SF-268, 48 h
Readout Name: GI50 (µM)
Only the number, expressed in µM, is required.

>  <Compound>
Cc1nc2ccccc2c(=O)n1NC1=CSC(=C(C#N)C#N)N1c1ccccc1

>  <Observed Value>
60.4

$$$$

Record summary for `Cc1nc2ccccc2c(=O)n1NCC(=O)NNc1ccccc1` : reported GI50 = 24.8

Record summary for `Cc1nc2ccccc2c(=O)n1NCc1nc2ccccc2[nH]1` : reported GI50 = 31.5

Record summary for `Cc1nc2ccccc2c(=O)n1/N=C1\SCC(=O)N1c1ccccc1` : reported GI50 = 38.4

Record summary for `Cc1nc2ccccc2c(=O)n1-n1c(C)cc(=O)n(-c2ccccc2)c1=S` : reported GI50 = 36.8

Record summary for `Cc1nc2ccccc2c(=O)n1NC(=S)Nc1ccccc1` : reported GI50 = 56.8

Record summary for `CCOC(=O)c1c(N)cc(O)n1-n1c(C)nc2ccccc2c1=O` : reported GI50 = 11.5

Record summary for `Cc1nc2ccccc2c(=O)n1/N=c1\scc(N)n1-c1ccccc1` : reported GI50 = 22.5

Record summary for `Cc1nc2ccccc2c(=O)n1NC(=O)/C(Cl)=C/c1ccccc1` : reported GI50 = 0.05

Record summary for Cc1nc2ccccc2c(=O)n1NC(=O)C1Nc2ccccc2C1=O (stereo unspecified) : reported GI50 = 20.3

###

tested on: MCF7; experiment: Growth inhibition of Homo sapiens (human) MCF7 cells after 48 hr by SRB assay; assay type: functional; conditions: MCF7, 48 h
Readout Name: GI50 (µM)

>  <Mol Smiles>
Cc1nc2ccccc2c(=O)n1NC(=O)CCl

>  <Observed Value>
50.1

$$$$
>  <Mol Smiles>
Cc1nc2ccccc2c(=O)n1NC(=O)/C(Cl)=C/c1ccccc1

>  <Observed Value>
0.03

$$$$

(A) Cc1nc2ccccc2c(=O)n1Nc1csc(N)n1
(B) Cc1nc2ccccc2c(=O)n1NC(=O)/C(Cl)=C/c1ccc(Cl)cc1
Which shows the larger GI50 value: A or B ? // return label of chosen record B
(B: 70.6 µM, A: 0.01 µM)

###

Consider the following compounds and their measured GI50 readings.
test system: SF-268; assay: Growth inhibition of Homo sapiens (human) SF268 cells after 48 hr by SRB assay; type: functional; settings: SF-268, 48 h
Only the number, expressed in µM, is required.

>  <Compound>
COc1ccc(/C=C(\Cl)C(=O)Nn2c(C)nc3ccccc3c2=O)cc1

>  <GI50 [µM]>
0.8

$$$$
>  <Compound>
Cc1nc2ccccc2c(=O)n1Nc1csc(N)n1

>  <GI50 [µM]>
0.4

$$$$

Record summary for `Cc1nc2ccccc2c(=O)n1NCC(=O)NN` : reported GI50 = 16.7

Record summary for `Cc1nc2ccccc2c(=O)n1NC(=O)CCl` : reported GI50 = 18.4

Record summary for `Cc1nc2ccccc2c(=O)n1NC(=O)c1cc2ccccc2o1` : reported GI50 = 22.3

Record summary for `CCOC(=O)CNn1c(C)nc2ccccc2c1=O` : reported GI50 = 26.8

Record summary for `COc1cccc2c1C(=O)c1c(O)c3c(c(O)c1C2=O)C[C@@](O)(C(=O)CO)C[C@@H]3O[C@H]1C[C@H](N)[C@H](O)[C@H](C)O1` : reported GI50 = 0.09

Record summary for `Cc1nc2ccccc2c(=O)n1Nc1cc2ccccc2oc1=O` : reported GI50 = 22.3

Record summary for `CCOC(=O)c1c(N)cc(N)n1-n1c(C)nc2ccccc2c1=O` : reported GI50 = 0.9

Record summary for CC1=CC(C)N(c2ccccc2)C(=S)N1n1c(C)nc2ccccc2c1=O (stereo unspecified) : reported GI50 = 0.03

Record summary for `Cc1nc2ccccc2c(=O)n1NC(=O)/C(Cl)=C/c1ccc(Cl)cc1` : reported GI50 = 50.8
